This listing pairs molecules with measured pIC50.
# target: S-adenosylmethionine synthase isoform type-2 (Homo sapiens, UniProt P31153)
# Sequence (P31153 whole entry, canonical isoform): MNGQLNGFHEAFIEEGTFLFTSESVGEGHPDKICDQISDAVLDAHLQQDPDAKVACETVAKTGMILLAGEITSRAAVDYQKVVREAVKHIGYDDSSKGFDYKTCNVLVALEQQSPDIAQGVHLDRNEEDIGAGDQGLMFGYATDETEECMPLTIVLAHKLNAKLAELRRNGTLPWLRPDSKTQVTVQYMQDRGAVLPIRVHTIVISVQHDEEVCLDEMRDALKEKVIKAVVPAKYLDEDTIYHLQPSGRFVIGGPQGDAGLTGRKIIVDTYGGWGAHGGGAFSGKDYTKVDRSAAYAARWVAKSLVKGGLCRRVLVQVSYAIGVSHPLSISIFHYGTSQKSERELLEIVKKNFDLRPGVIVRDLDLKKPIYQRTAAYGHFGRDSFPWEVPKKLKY
# protocol: Inhibition of MAT2A (unknown origin) assessed as S-adenosyl methionine production using L-methionine as substrate pretreated for 60 mins followed by L-methionine and ATP addition
pIC50: −log10 of the molar value.
endpoint: pIC50

molecule="CCOc1ncc2cc(C3=CC4N=C(CCN5CCC(O)C5)N(C)C4C=C3)c(=O)n(-c3ccc(OC(F)F)cc3)c2n1 (centres undefined)" endpoint=pIC50 assayvalue=8.33
molecule=CCOc1ncc2cc(-c3ccc(OC)cc3C)c(=O)n(-c3ccc(OC(F)F)cc3)c2n1 endpoint=pIC50 assayvalue=7.15
molecule=Cn1cnc2ccc(-c3cc4cnc(NCC(F)(F)F)nc4n(-c4ccc(OC(F)F)cc4)c3=O)cc21 endpoint=pIC50 assayvalue=7.44
molecule=CCOc1ncc2cc(-c3ccc4ncn(C)c4c3)c(=O)n(-c3ccc(OC(F)F)cc3)c2n1 endpoint=pIC50 assayvalue=7.71

----------
# target: S-adenosylmethionine synthase isoform type-2 (Homo sapiens, UniProt P31153)
# protocol: Inhibition of human recombinant His-tagged MAT2A expressed in Escherichia coli expression system assessed as S-adenosyl methionine production using L-methionine as substrate incubated for 20 mins followed by L-methionine and ATP addition by malachite green phosphate assay
Reported values of IC50 for individual entries
endpoint: IC50 (µM)

smilesinput=CN(C)c1ccc(/C=C/c2c(F)cccc2F)cc1 assayvalue=4.9
smilesinput=CNc1ccc(/C=C/c2c(F)cccc2Cl)cc1 assayvalue=2.1

----------
# target: S-adenosylmethionine synthase isoform type-2 (Homo sapiens)
# protocol: Inhibition of MAT2A in human NCI-H520 cells transfected with MAT2A empty vector assessed as inhibition of S-adenosyl methionine production measured after 6 hrs by Rapid Fire Mass Spectrometry analysis
# Type: cell-based
endpoint: IC50 (µM)

compound="NC1(C(=O)O)CCCC1 [CYCLOLEUCINE]" unittag=µM assayvalue=5600
compound=CN(C)CCc1nnc2cc(-c3ccccc3)c3cc(Cl)ccc3n12 unittag=µM assayvalue=1.2

----------
# protocol: Antiproliferative activity against human HCT116-MTAP null cells assessed as cell growth inhibition incubated for 92 hrs by In-cell western analysis
# Format: functional, cell-based
endpoint: IC50 (nM)

smilesinput=Cc1cc(=O)n2nc(C)c(-c3ccccc3)c2[nH]1 assayvalue=9

----------
# target: S-adenosylmethionine synthase isoform type-2 (Homo sapiens)
# protocol: Inhibition of MAT2A in human Huh-7 cells assessed as inhibition of S-adenosyl methionine production measured after 6 hrs by Rapid Fire Mass Spectrometry analysis
# Type: cell-based
pIC50: −log10 of the molar value.
List of pIC50 values.
endpoint: pIC50

smilesinput=NC1(C(=O)O)CCCC1 assayvalue=2.89
smilesinput=CN(C)CCc1nnc2cc(-c3ccccc3)c3cc(Cl)ccc3n12 assayvalue=6.65

----------
# protocol: Antiproliferative activity against human HCT116-MTAP null cells assessed as cell growth inhibition measured after 6 days by Cell Titer Glo analysis
# Type: functional, cell-based
# conditionLabel: 144 h
Measured IC50, listed per entry.
endpoint: IC50

smilesinput=Cn1cnc2ccc(-c3cc4cnc(NCC(F)(F)F)nc4n(-c4ccc(OC(F)F)cc4)c3=O)cc21 endpoint=IC50 assayvalue="102 nM"
smilesinput=CCOc1ncc2cc(-c3ccc4ncn(C)c4c3)c(=O)n(-c3ccc(OC(F)F)cc3)c2n1 endpoint=IC50 assayvalue="84.4 nM"

----------
# protocol: Inhibition of rat novikoff liver hepatoma MAT isozymes assessed as S-adenosyl methionine production using L-methionine as substrate in presence of ATP
# Assay type: tissue-based
pIC50: −log10 of the molar value.
endpoint: pIC50

smilesinput=NC1(C(=O)O)CCCC1 assayvalue=3.68
